Origin of measurements: ChEMBL document CHEMBL3217667

System: Cryptococcus neoformans
Test: Antifungal activity against Cryptococcus neoformans by broth microdilution assay
Assay type: functional, organism-based
Just a reminder that ties go to 0.0: only IC50 strictly below 8 µg/mL counts as 1.0.

These recorded examples may help you get a feel for the data.
- MOLECULE: "COc1cc(NC(C)CCCNC(C)CCCN)c2nc(C(C)(C)C)ccc2c1.Cl (stereo not given)"
  ASSAYED_TARGET: "Cryptococcus neoformans"
  CLASS: 0.0
- MOLECULE: "CCCCOc1c(OC)cc(NC(C)CCCNC(C)CCCNC(C)CCCN)c2nccc(CC)c12.Cl (stereo not given)"
  ASSAYED_TARGET: "Cryptococcus neoformans"
  CLASS: 0.0
- MOLECULE: "CCCCCOc1c(OC)cc(NC(C)CCCNC(C)CCCNC(C)CCCN)c2nccc(CC)c12.Cl (stereo not given)"
  ASSAYED_TARGET: "Cryptococcus neoformans"
  CLASS: 1.0

A record lists CCCCCOc1c(OC)cc(NC(C)CCCNC(C)CCCNC(C)CCCNC(C)CCCN)c2nccc(CC)c12.Cl (stereo not given) . Is its IC50 below 8 µg/mL?
1.0

Would you kindly verify if IC50 of CCCCCOc1c(OC)cc(NC(C)CCCNC(C)CCCN)c2nccc(CC)c12.Cl (stereo not given) is strictly less than 8 µg/mL?
1.0

* * *

Experiment: Inhibition of beta-hematin formation after 16 hrs
Type: physicochemical
MEASURED_PROPERTY: pIC50
The read-out pIC50 is expressed as -log10 of concentration in moles per litre.

- COMPOUND: "CCCCCOc1c(OC)cc(NC(C)CCCNC(C)CCCNC(C)CCCN)c2nccc(CC)c12.Cl (centres undefined)"
  pIC50: 4.68
- COMPOUND: "COc1cc(NC(C)CCCNC(C)CCCNC(C)CCCN)c2ncccc2c1.Cl (centres undefined)"
  pIC50: 4.12
- COMPOUND: "COc1cc(NC(C)CCCNC(C)CCCNC(C)CCCNC(C)CCCN)c2ncccc2c1.Cl (centres undefined)"
  pIC50: 4.12
- COMPOUND: "CCCCCCCCOc1c(OC)cc(NC(C)CCCNC(C)CCCN)c2nccc(CC)c12.Cl (centres undefined)"
  pIC50: 4.80
- COMPOUND: "COc1cc(NC(C)CCCNC(C)CCCN)c2ncccc2c1.Cl (centres undefined)"
  pIC50: 4.73
- COMPOUND: "CCCCOc1c(OC)cc(NC(C)CCCNC(C)CCCN)c2nccc(CC)c12.Cl (centres undefined)"
  pIC50: 4.99
- COMPOUND: "CCCCOc1c(OC)cc(NC(C)CCCNC(C)CCCNC(C)CCCNC(C)CCCN)c2nccc(CC)c12.Cl (centres undefined)"
  pIC50: 4.97

Requested read-out: pIC50. Entry: COc1cc(NC(C)CCCNC(C)CCCNC(C)CCCNC(C)CCCN)c2nc(C(C)(C)C)ccc2c1.Cl (centres undefined)
4.99

* * *

Test system: Plasmodium berghei
Assay: Antimalarial activity against Plasmodium berghei infected in mouse assessed as reduction in parasitemia at 100 mg/kg/day, po for 4 days measured up to day 14
Assay type: functional
Activity calls are given as the source filed them. The rule behind the calls is not given here.
MEASURED_PROPERTY: Activity

Here's what some known entries look like.
- COMPOUND: "CCCCOc1c(OC)cc(NC(C)CCCNC(C)CCCNC(C)CCCN)c2nccc(CC)c12.Cl (stereo not drawn)"
  Activity: "inactive"
- COMPOUND: "COc1cc(NC(C)CCCNC(C)CCCNC(C)CCCNC(C)CCCN)c2ncccc2c1.Cl (stereo not drawn)"
  Activity: "100%"
- COMPOUND: "COc1cc(NC(C)CCCNC(C)CCCNC(C)CCCN)c2ncccc2c1.Cl (stereo not drawn)"
  Activity: "100%"
- COMPOUND: "CCCCCOc1c(OC)cc(NC(C)CCCNC(C)CCCN)c2nccc(CC)c12.Cl (stereo not drawn)"
  Activity: "inactive"

Param item = CCCCOc1c(OC)cc(NC(C)CCCNC(C)CCCN)c2nccc(CC)c12.Cl (stereo not drawn) ; retrieve measured Activity.
inactive

Item under review: CCCCCOc1c(OC)cc(NC(C)CCCNC(C)CCCNC(C)CCCN)c2nccc(CC)c12.Cl (stereo not drawn) . Reported Activity?
inactive

Which Activity value is on record for COc1cc(NC(C)CCCNC(C)CCCN)c2nc(C(C)(C)C)ccc2c1.Cl (stereo not drawn) ?
100%

Entry COc1cc(NC(C)CCCNC(C)CCCNC(C)CCCNC(C)CCCN)c2nc(C(C)(C)C)ccc2c1.Cl (stereo not drawn) has what Activity?
100%

Dear colleague, I am looking for the recorded Activity of the following compound: CCCCCOc1c(OC)cc(NC(C)CCCNC(C)CCCNC(C)CCCNC(C)CCCN)c2nccc(CC)c12.Cl (stereo not drawn)
inactive

GET /values?readout=Activity&item= COc1cc(NC(C)CCCNC(C)CCCNC(C)CCCN)c2nc(C(C)(C)C)ccc2c1.Cl (stereo not drawn)
100%

Sample CCCCOc1c(OC)cc(NC(C)CCCNC(C)CCCNC(C)CCCNC(C)CCCN)c2nccc(CC)c12.Cl (stereo not drawn) — what was its Activity?
inactive

Tell me the measured Activity of COc1cc(NC(C)CCCNC(C)CCCN)c2ncccc2c1.Cl (stereo not drawn) , please.
100%

Which Activity value is on record for CCCCCCCCOc1c(OC)cc(NC(C)CCCNC(C)CCCN)c2nccc(CC)c12.Cl (stereo not drawn) ?
inactive

* * *

System: Staphylococcus aureus
Assay: Antibacterial activity against Staphylococcus aureus
Format: functional, organism-based
MEASURED_PROPERTY: IC50 (µg/mL)
Respond numerically; units are µg/mL and should not be typed.

- COMPOUND: "CCCCOc1c(OC)cc(NC(C)CCCNC(C)CCCNC(C)CCCNC(C)CCCN)c2nccc(CC)c12.Cl (configuration not stated)"
  IC50 [µg/mL]: 13.6
- COMPOUND: "CCCCCCCCOc1c(OC)cc(NC(C)CCCNC(C)CCCN)c2nccc(CC)c12.Cl (configuration not stated)"
  IC50 [µg/mL]: 14.5
- COMPOUND: "CCCCCOc1c(OC)cc(NC(C)CCCNC(C)CCCNC(C)CCCNC(C)CCCN)c2nccc(CC)c12.Cl (configuration not stated)"
  IC50 [µg/mL]: 9.8
- COMPOUND: "CCCCCOc1c(OC)cc(NC(C)CCCNC(C)CCCN)c2nccc(CC)c12.Cl (configuration not stated)"
  IC50 [µg/mL]: 13.6
- COMPOUND: "CCCCOc1c(OC)cc(NC(C)CCCNC(C)CCCN)c2nccc(CC)c12.Cl (configuration not stated)"
  IC50 [µg/mL]: 13.7
- COMPOUND: "CCCCCOc1c(OC)cc(NC(C)CCCNC(C)CCCNC(C)CCCN)c2nccc(CC)c12.Cl (configuration not stated)"
  IC50 [µg/mL]: 8.6

# ---- query compound ----
What IC50 value was documented for this compound, CCCCOc1c(OC)cc(NC(C)CCCNC(C)CCCNC(C)CCCN)c2nccc(CC)c12.Cl (configuration not stated) ?
12

* * *

Tested on: Leishmania donovani
Assay: Antileishmanial activity against Leishmania donovani promastigotes by Alamar Blue assay
Format: functional, organism-based
IC90 reference
Number only, in µg/mL; omit the unit.

These recorded examples may help you get a feel for the data.
- COMPOUND: "COc1cc(NC(C)CCCNC(C)CCCN)c2nc(C(C)(C)C)ccc2c1.Cl (stereo not drawn)"
  ASSAYED_TARGET: "Leishmania donovani"
  IC90 (µg/mL): 7.2
- COMPOUND: "CCCCOc1c(OC)cc(NC(C)CCCNC(C)CCCNC(C)CCCNC(C)CCCN)c2nccc(CC)c12.Cl (stereo not drawn)"
  ASSAYED_TARGET: "Leishmania donovani"
  IC90 (µg/mL): 7

Then there is this compound:
Record request: IC90 value, item CCCCOc1c(OC)cc(NC(C)CCCNC(C)CCCN)c2nccc(CC)c12.Cl (stereo not drawn)
7

* * *

Test system: Cryptococcus neoformans
Test: Antifungal activity against Cryptococcus neoformans by broth microdilution assay
Type: functional, organism-based
MEASURED_PROPERTY: IC50 (µg/mL)
Response body: numeric value in µg/mL, unit text excluded.

- COMPOUND: "CCCCOc1c(OC)cc(NC(C)CCCNC(C)CCCNC(C)CCCNC(C)CCCN)c2nccc(CC)c12.Cl (stereo not given)"
  IC50 (µg/mL): 8
- COMPOUND: "COc1cc(NC(C)CCCNC(C)CCCNC(C)CCCN)c2nc(C(C)(C)C)ccc2c1.Cl (stereo not given)"
  IC50 (µg/mL): 7.5
- COMPOUND: "CCCCOc1c(OC)cc(NC(C)CCCNC(C)CCCN)c2nccc(CC)c12.Cl (stereo not given)"
  IC50 (µg/mL): 7.9
- COMPOUND: "CCCCCCCCOc1c(OC)cc(NC(C)CCCNC(C)CCCN)c2nccc(CC)c12.Cl (stereo not given)"
  IC50 (µg/mL): 8.5

Proceed to the following item.
Test system Cryptococcus neoformans; read-out IC50; what value for COc1cc(NC(C)CCCNC(C)CCCNC(C)CCCNC(C)CCCN)c2nc(C(C)(C)C)ccc2c1.Cl (stereo not given) ?
10
